Target: ROCK2 (Homo sapiens, UniProt O75116)
Sequence (O75116 whole entry): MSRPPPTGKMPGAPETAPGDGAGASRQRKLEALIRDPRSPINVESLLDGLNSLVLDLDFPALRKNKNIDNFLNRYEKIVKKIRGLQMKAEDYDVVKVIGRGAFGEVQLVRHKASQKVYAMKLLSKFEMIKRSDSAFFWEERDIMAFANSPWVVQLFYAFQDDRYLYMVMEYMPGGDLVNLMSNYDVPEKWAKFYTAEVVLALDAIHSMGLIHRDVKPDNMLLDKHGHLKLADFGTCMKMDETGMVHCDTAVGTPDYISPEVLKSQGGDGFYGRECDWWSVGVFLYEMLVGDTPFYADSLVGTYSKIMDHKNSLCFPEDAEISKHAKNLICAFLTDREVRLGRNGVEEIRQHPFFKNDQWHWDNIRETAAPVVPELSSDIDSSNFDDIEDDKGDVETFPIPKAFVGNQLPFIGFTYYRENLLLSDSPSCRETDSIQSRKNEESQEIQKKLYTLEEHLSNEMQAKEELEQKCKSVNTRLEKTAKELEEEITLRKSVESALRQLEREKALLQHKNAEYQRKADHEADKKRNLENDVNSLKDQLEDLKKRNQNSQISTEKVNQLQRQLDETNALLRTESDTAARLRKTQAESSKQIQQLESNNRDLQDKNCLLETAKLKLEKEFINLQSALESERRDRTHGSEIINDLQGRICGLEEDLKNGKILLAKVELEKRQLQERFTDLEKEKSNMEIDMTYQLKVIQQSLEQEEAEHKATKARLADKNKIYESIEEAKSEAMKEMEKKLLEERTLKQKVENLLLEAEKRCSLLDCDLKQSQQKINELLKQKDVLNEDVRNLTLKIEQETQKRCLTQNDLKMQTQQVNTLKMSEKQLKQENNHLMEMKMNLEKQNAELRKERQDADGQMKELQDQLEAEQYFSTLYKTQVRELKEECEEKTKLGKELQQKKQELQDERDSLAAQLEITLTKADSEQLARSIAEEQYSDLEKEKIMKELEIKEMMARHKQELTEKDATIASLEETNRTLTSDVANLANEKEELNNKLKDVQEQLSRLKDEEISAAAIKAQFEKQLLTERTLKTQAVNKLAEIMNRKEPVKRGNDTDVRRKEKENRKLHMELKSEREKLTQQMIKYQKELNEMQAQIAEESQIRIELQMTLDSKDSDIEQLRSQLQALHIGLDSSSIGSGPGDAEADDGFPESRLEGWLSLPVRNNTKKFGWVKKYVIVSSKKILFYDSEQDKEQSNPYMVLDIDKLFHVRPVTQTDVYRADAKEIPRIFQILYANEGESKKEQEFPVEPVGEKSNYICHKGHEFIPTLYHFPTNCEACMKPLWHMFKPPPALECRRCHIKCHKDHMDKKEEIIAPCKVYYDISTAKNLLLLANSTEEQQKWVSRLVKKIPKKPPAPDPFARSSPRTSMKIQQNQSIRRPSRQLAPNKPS
Assay: In vitro inhibitory activity assay ROCK2 (Method B, ADP-Glo, 200 μM ATP)
Assay type: biochemical
Conditions: ATP 200 μM, read-out: Method B ROCK 2 (Ki)
pKi: −log10 of the molar value.
// reported pKi per item

// solved cases for pKi follow
* COc1ccc(NC(=O)c2cccc(CNc3ncc(-c4cn[nH]c4)c4c3CCO4)c2)nc1 | ≥ 8.52
* CNC(=O)c1cccc(CNc2ncc(-c3cnco3)c3c2CCO3)c1 [Example B, reference compound] | 7.52 to 8.52
* CN1CCC(CCNC(=O)c2cccc(CNc3ncc(-c4cn[nH]c4)c4c3CCO4)c2)CC1 | ≥ 8.52
* O=C(NCc1cncnc1)c1cccc(CNc2ncc(-c3cn[nH]c3)c3c2CCO3)c1 | 7.52 to 8.52
* O=C(NCC1CCCCO1)c1cccc(CNc2ncc(-c3cn[nH]c3)c3c2CCO3)c1 (single isomer, unassigned; enantiomer 1) [Example 55] | ≥ 8.52

Provide pKi value for the following compound: `O=C(NCCCF)c1cccc(CNc2ncc(-c3cn[nH]c3)c3c2CCO3)c1` 7.52 to 8.52

Look up and state reported pKi for O=C(NCC1CCCCO1)c1cccc(CNc2ncc(-c3cn[nH]c3)c3c2CCO3)c1 (racemic) [Example 11] ≥ 8.52

For the compound `CN1CCC(n2ncc3cc(C(=O)Nc4cccc(CNc5ncc(-c6cn[nH]c6)c6c5CCO6)c4)ccc32)CC1` , report pKi. ≥ 8.52

Provide only the value of recorded pKi for `O=C(NC1CC(F)(F)C1)c1cccc(CNc2ncc(-c3cn[nH]c3)c3c2CCO3)c1` 7.52 to 8.52

Identify measured pKi corresponding to CNC(=O)c1cccc(CNc2ncc(-c3cncs3)c3c2CCO3)c1 [Example A, reference compound] < 7.52

====

Target: UniProtKB Q13464
Sequence (Q13464 whole entry): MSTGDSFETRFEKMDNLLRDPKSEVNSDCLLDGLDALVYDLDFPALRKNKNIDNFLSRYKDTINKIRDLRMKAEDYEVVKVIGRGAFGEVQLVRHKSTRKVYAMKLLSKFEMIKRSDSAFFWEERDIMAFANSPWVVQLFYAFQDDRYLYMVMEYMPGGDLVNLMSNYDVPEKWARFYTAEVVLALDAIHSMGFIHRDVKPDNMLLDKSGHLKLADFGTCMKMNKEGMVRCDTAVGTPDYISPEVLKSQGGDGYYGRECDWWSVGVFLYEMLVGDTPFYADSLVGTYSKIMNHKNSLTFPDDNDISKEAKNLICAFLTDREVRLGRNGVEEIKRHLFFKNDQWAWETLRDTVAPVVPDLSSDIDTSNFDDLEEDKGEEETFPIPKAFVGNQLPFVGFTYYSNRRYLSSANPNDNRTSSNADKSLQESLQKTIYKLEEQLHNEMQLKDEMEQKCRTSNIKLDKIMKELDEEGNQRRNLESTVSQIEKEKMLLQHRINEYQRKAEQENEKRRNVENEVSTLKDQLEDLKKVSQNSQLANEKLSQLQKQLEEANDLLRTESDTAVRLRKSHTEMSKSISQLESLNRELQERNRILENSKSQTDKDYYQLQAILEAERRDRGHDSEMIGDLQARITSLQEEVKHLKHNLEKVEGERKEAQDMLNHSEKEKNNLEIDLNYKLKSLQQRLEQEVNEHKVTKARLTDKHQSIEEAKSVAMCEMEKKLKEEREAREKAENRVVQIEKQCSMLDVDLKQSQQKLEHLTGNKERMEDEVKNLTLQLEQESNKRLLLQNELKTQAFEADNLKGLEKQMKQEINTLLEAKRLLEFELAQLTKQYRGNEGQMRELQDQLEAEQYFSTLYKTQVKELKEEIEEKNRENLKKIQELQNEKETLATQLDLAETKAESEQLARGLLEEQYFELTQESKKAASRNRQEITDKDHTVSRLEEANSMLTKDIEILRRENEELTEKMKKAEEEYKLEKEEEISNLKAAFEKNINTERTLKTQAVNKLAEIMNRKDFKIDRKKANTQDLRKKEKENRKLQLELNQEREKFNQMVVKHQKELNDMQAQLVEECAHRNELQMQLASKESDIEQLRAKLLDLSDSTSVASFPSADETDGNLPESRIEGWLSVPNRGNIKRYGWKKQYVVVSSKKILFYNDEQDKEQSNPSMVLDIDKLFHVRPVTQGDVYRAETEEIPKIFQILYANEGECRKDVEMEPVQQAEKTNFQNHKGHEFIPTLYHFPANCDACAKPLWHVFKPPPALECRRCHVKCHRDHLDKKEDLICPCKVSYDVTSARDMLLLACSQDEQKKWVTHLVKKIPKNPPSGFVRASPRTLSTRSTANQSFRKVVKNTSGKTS
Assay: In vitro inhibitory activity assay ROCK1 (Method B, ADP-Glo, 200 μM ATP)
Assay type: biochemical
Details: ATP 200 μM, read-out: Method B ROCK 1 (Ki)
# Ki per entry

Answered examples (2):
• CNC(=O)c1cccc(CNc2ncc(-c3cncs3)c3c2CCO3)c1 [Example A, reference compound] = > 30 nM
• O=C(Nc1cccc(CNc2ncc(-c3cn[nH]c3)c3c2CCO3)c1)c1ccc2c(cnn2CCN2CCOCC2)c1 = ≤ 3 nM

State, in one line, measured Ki of `COCCNC(=O)c1cccc(CNc2ncc(-c3cn[nH]c3)c3c2CCO3)c1` 3 to 30 nM

# return recorded Ki for input `CN1CCC(CCNC(=O)c2cccc(CNc3ncc(-c4cn[nH]c4)c4c3CCO4)c2)CC1` ≤ 3 nM

Given `O=C(Nc1cccc(CNc2ncc(-c3cn[nH]c3)c3c2CCO3)c1)c1ncc(CN2CCCC2)s1` , respond with its Ki. ≤ 3 nM

For the molecule `O=C(NCc1ccccn1)c1cccc(CNc2ncc(-c3cn[nH]c3)c3c2CCO3)c1` , give its reported Ki. 3 to 30 nM

Query Ki for `O=C(NCc1ccon1)c1cccc(CNc2ncc(-c3cn[nH]c3)c3c2CCO3)c1` 3 to 30 nM

====

Molecular target: ROCK2 (Homo sapiens)
Assay: In vitro inhibitory activity assay ROCK2 (Method B, ADP-Glo, 200 μM ATP)
Format: biochemical
Settings: ATP 200 μM, read-out: Method B ROCK 2 (Ki)
Ki for assorted compounds

These recorded examples may help you get a feel for the data.
• O=C(Nc1ccncn1)c1cccc(CNc2ncc(-c3cn[nH]c3)c3c2CCO3)c1 = ≤ 3 nM
• O=C(NCC1CC1)c1cccc(CNc2ncc(-c3cn[nH]c3)c3c2CCO3)c1 = 3 to 30 nM
• O=C(NC1CCN(C2CC2)CC1)c1cccc(CNc2ncc(-c3cn[nH]c3)c3c2CCO3)c1 = ≤ 3 nM
• Cn1cnc(CNC(=O)c2cccc(CNc3ncc(-c4cn[nH]c4)c4c3CCO4)c2)c1 = ≤ 3 nM

Let me know recorded Ki for CN(C)C1CCc2nc(NC(=O)c3cccc(CNc4ncc(-c5cn[nH]c5)c5c4CCO5)c3)sc2C1 (centres unmarked) , thanks. ≤ 3 nM

Please give measured Ki of the following entry: `O=C(NCCC1CCN(C2COC2)CC1)c1cccc(CNc2ncc(-c3cn[nH]c3)c3c2CCO3)c1` ≤ 3 nM

Answer with reported Ki of c1ccc(CNc2ncc(-c3cn[nH]c3)c3c2CCO3)cc1 [Example C, reference compound] > 30 nM

Complete the entry with Ki for `O=C(NCc1ccccn1)c1cccc(CNc2ncc(-c3cn[nH]c3)c3c2CCO3)c1` 3 to 30 nM
